- System: Coxsackievirus B3
- measurement notes: Antiviral activity against Coxsackievirus B3 infected in african green monkey Vero cells assessed as inhibition virus-induced cell death by MTS assay
- Type: functional, organism-based
- assay conditions: Enterovirus B
test readout: EC90

Problem: EC90 for Clc1ncnc2c1ncn2[C@@H]1C[C@@H]2C[C@H]1[C@@H](Oc1ccccc1)C2 (relative stereo) ?
Result: > 150 µM

Problem: EC90 for O=C(OC1CC2CC1C(n1cnc3c(Cl)ncnc31)C2)c1ccccc1 (centres undefined) ?
Result: > 45 µM

---

The molecules listed here are annotated with their CC50.
- measurement notes: Cytotoxicity against african green monkey Vero cells assessed as inhibition of host metabolism by MTS assay
- Format: cell-based
- assay conditions: chlorocebus sabaeus
Give your result in µM as a bare value.

// below: answered molecules
molecule: CCCCCO[C@H]1C[C@H]2C[C@@H]1C[C@@H]2n1cnc2c(Cl)ncnc21 (relative stereo)
test readout: CC50
numeric value: 32
--
molecule: CCCCCCCCCC(=O)O[C@H]1C[C@H]2C[C@@H]1C[C@@H]2n1cnc2c(Cl)ncnc21 (relative stereo)
test readout: CC50
numeric value: 47
--
molecule: Oc1ccc(O[C@H]2C[C@H]3C[C@@H]2C[C@@H]3n2cnc3c(Cl)ncnc32)cc1 (relative stereo)
test readout: CC50
numeric value: 217

Problem: CC50 for CCCCCCO[C@H]1C[C@H]2C[C@@H]1C[C@@H]2n1cnc2c(Cl)ncnc21 (relative stereo) ?
Result: 27

Problem: CC50 for CCCCCC(=O)O[C@H]1C[C@H]2C[C@@H]1C[C@@H]2n1cnc2c(Cl)ncnc21 (relative stereo) ?
Result: 60

Problem: CC50 for CCCCCCCC(=O)O[C@H]1C[C@H]2C[C@@H]1[C@H](n1cnc3c(Cl)ncnc31)C2 (relative stereo) ?
Result: 50

Problem: CC50 for CCCCCCCCCC(=O)O[C@H]1C[C@H]2C[C@@H]1[C@H](n1cnc3c(Cl)ncnc31)C2 (relative stereo) ?
Result: 44

Problem: CC50 for O=C(OC1CC2CC1C(n1cnc3c(Cl)ncnc31)C2)c1ccccc1 (stereo not drawn) ?
Result: 45

Problem: CC50 for Clc1ncnc2c1ncn2[C@H]1C[C@H]2C[C@@H]1C[C@@H]2Oc1ccccc1 (relative stereo) ?
Result: 50

Problem: CC50 for CCCCCC(=O)O[C@H]1C[C@H]2C[C@@H]1[C@H](n1cnc3c(Cl)ncnc31)C2 (relative stereo) ?
Result: 70

Problem: CC50 for Clc1ncnc2c1ncn2[C@H]1C[C@H]2C[C@@H]1C[C@@H]2OC1CCCCC1 (relative stereo) ?
Result: 22

Problem: CC50 for CCCCCCCC(=O)O[C@H]1C[C@H]2C[C@@H]1C[C@@H]2n1cnc2c(Cl)ncnc21 (relative stereo) ?
Result: 52

---

- System: Coxsackievirus B3
- measurement notes: Antiviral activity against Coxsackievirus B3 infected in african green monkey Vero cells assessed as inhibition virus-induced cell death by MTS assay
- Format: functional, organism-based
- assay conditions: Enterovirus B
test readout: EC90 (µM)
Give your result in µM as a bare value.

molecule: OCCCCCO[C@H]1C[C@H]2C[C@@H]1C[C@@H]2n1cnc2c(Cl)ncnc21 (relative stereo)
EC90, µM: 30

Problem: EC90 for OCCO[C@@H]1C[C@H]2C[C@@H]1[C@H](n1cnc3c(Cl)ncnc31)C2 (relative stereo) ?
Result: 22

Problem: EC90 for CCCCCC(=O)O[C@H]1C[C@H]2C[C@@H]1C[C@@H]2n1cnc2c(Cl)ncnc21 (relative stereo) ?
Result: 56

---

- measurement notes: Selectivity index, ratio of CC50 for african green monkey Vero cells to EC50 for Coxsackievirus B3
- Assay type: toxicity, cell-based
- assay conditions: read-out: Ratio CC50/EC50
The molecules listed here are annotated with their selectivity ratio.

molecule: CCCCCC(=O)O[C@H]1C[C@H]2C[C@@H]1C[C@@H]2n1cnc2c(Cl)ncnc21 (relative stereo)
result: 1.8
--
molecule: OCCOCCO[C@H]1C[C@H]2C[C@@H]1C[C@@H]2n1cnc2c(Cl)ncnc21 (relative stereo)
result: > 14
--
molecule: O=C(OC1CC2CC1C(n1cnc3c(Cl)ncnc31)C2)c1ccccc1 (configuration not stated)
result: 1.3

Problem: selectivity ratio for CO[C@H]1C[C@H]2C[C@@H]1C[C@@H]2n1cnc2c(Cl)ncnc21 (relative stereo) ?
Result: > 27

Problem: selectivity ratio for OCCO[C@@H]1C[C@H]2C[C@@H]1C[C@@H]2n1cnc2c(Cl)ncnc21 (relative stereo) ?
Result: > 41

Problem: selectivity ratio for OCCCO[C@H]1C[C@H]2C[C@@H]1C[C@@H]2n1cnc2c(Cl)ncnc21 (relative stereo) ?
Result: > 13

Problem: selectivity ratio for OCCO[C@@H]1C[C@H]2C[C@@H]1[C@H](n1cnc3c(Cl)ncnc31)C2 (relative stereo) ?
Result: > 50

---

- measurement notes: Solubility of the compound in water at 20 degC by UV spectrophotometry
- Type: physicochemical
The compounds listed here are annotated with their solubility.
Give your result in µg/mL as a bare value.

// below: answered compounds
compound: OCCO[C@@H]1C[C@H]2C[C@@H]1C[C@@H]2n1cnc2c(Cl)ncnc21 (relative stereo)
solubility (µg/mL): 4570
//
compound: OCCOCCO[C@H]1C[C@H]2C[C@@H]1C[C@@H]2n1cnc2c(Cl)ncnc21 (relative stereo)
solubility (µg/mL): 7460
//
compound: OCCO[C@@H]1C[C@H]2C[C@@H]1[C@H](n1cnc3c(Cl)ncnc31)C2 (relative stereo)
solubility (µg/mL): 4690

Next:
Problem: solubility for Clc1ncnc2c1ncn2C1CC2CCC1C2 (centres undefined) ?
Result: 530

---

- Tested on: Coxsackievirus B3
- measurement notes: Antiviral activity against Coxsackievirus B3 infected in african green monkey Vero cells assessed as inhibition virus-induced cell death by MTS assay
- Type: functional, organism-based
- assay conditions: Enterovirus B
test readout: EC90 (µM)
Give your result in µM as a bare value.

// below: answered molecules
molecule: CO[C@H]1C[C@H]2C[C@@H]1C[C@@H]2n1cnc2c(Cl)ncnc21 (relative stereo)
numeric value: 37

molecule: OCCOCCO[C@H]1C[C@H]2C[C@@H]1C[C@@H]2n1cnc2c(Cl)ncnc21 (relative stereo)
numeric value: 60

molecule: OCCO[C@@H]1C[C@H]2C[C@@H]1C[C@@H]2n1cnc2c(Cl)ncnc21 (relative stereo)
numeric value: 32

molecule: C[C@@]1(O)[C@H](O)[C@@H](CO)O[C@H]1n1ccc(N)nc1=O
numeric value: 179

molecule: OCCCCO[C@H]1C[C@H]2C[C@@H]1C[C@@H]2n1cnc2c(Cl)ncnc21 (relative stereo)
numeric value: 53

Next:
Problem: EC90 for OCCO[C@H]1C[C@H]2C[C@@H]1[C@H](n1cnc3c(Cl)ncnc31)C2 (relative stereo) ?
Result: 37

---

- measurement notes: Cytotoxicity against african green monkey Vero cells assessed as inhibition of host metabolism by MTS assay
- Type: cell-based
- assay conditions: chlorocebus sabaeus
test readout: CC50

molecule: OCCCCO[C@H]1C[C@H]2C[C@@H]1C[C@@H]2n1cnc2c(Cl)ncnc21 (relative stereo)
CC50: > 594 µM
//
molecule: OCCCO[C@H]1C[C@H]2C[C@@H]1C[C@@H]2n1cnc2c(Cl)ncnc21 (relative stereo)
CC50: > 620 µM
//
molecule: O=C(OC1CC2CC1CC2n1cnc2c(Cl)ncnc21)c1ccccc1 (stereo unspecified)
CC50: > 542 µM
//
molecule: OCCO[C@H]1C[C@H]2C[C@@H]1[C@H](n1cnc3c(Cl)ncnc31)C2 (relative stereo)
CC50: > 648 µM
//
molecule: CO[C@H]1C[C@H]2C[C@@H]1C[C@@H]2n1cnc2c(Cl)ncnc21 (relative stereo)
CC50: > 718 µM
//
molecule: OCCCCCO[C@H]1C[C@H]2C[C@@H]1C[C@@H]2n1cnc2c(Cl)ncnc21 (relative stereo)
CC50: > 570 µM
//
molecule: OCCO[C@H]1C[C@H]2C[C@@H]1C[C@@H]2n1cnc2c(Cl)ncnc21 (relative stereo)
CC50: > 648 µM
//
molecule: Clc1ncnc2c1ncn2[C@@H]1C[C@@H]2C[C@H]1[C@@H](Oc1ccccc1)C2 (relative stereo)
CC50: > 587 µM

Problem: CC50 for OCCO[C@@H]1C[C@H]2C[C@@H]1C[C@@H]2n1cnc2c(Cl)ncnc21 (relative stereo) ?
Result: > 648 µM

Problem: CC50 for OCCOCCO[C@H]1C[C@H]2C[C@@H]1C[C@@H]2n1cnc2c(Cl)ncnc21 (relative stereo) ?
Result: > 567 µM

Problem: CC50 for OCCO[C@@H]1C[C@H]2C[C@@H]1[C@H](n1cnc3c(Cl)ncnc31)C2 (relative stereo) ?
Result: > 648 µM

---

- Test system: Coxsackievirus B3
- measurement notes: Antiviral activity against Coxsackievirus B3 infected in african green monkey Vero cells assessed as inhibition virus-induced cell death by MTS assay
- Type: functional, organism-based
- assay conditions: Enterovirus B
The molecules listed here are annotated with their EC90.

// below: answered molecules
molecule: Clc1ncnc2c1ncn2[C@H]1C[C@H]2C[C@@H]1C[C@@H]2Oc1ccccc1 (relative stereo)
test readout: EC90
result: > 50 µM
--
molecule: CCCCCO[C@H]1C[C@H]2C[C@@H]1C[C@@H]2n1cnc2c(Cl)ncnc21 (relative stereo)
test readout: EC90
result: > 32 µM
--
molecule: Clc1ncnc2c1ncn2[C@H]1C[C@H]2C[C@@H]1C[C@@H]2OC1CCCCC1 (relative stereo)
test readout: EC90
result: > 22 µM

Next:
Problem: // lookup EC90 | system=Coxsackievirus B3 | key= CCCCCCCC(=O)O[C@H]1C[C@H]2C[C@@H]1C[C@@H]2n1cnc2c(Cl)ncnc21 (relative stereo)
Result: > 52 µM
